# Read-out: Monocyte Chemoattractant Protein-1 (MCP1), CCL2 (gene 6347)
# Test Details: BSK_SAg_MCP1: BioMAP Diversity Plus: SAg Assay for Monocyte Chemoattractant Protein-1 (MCP1) Biomarker Activity (AID 2283090)
# Setup Conditions: primary human HUVEC with PBMC; actives raise or lower the signal
Calls of active or inactive are those of the source. The calls were made as follows: active = hit-call score of the fitted dose curve at least 0.9, where 1 is the maximum; inactive = score below 0.9.
Outcomes: active, inactive

Molecule: CCc1ccc(CCOc2ccc(CC3SC(=O)NC3=O)cc2)nc1 (stereo unspecified)
Class Name: inactive

Molecule: CC(=O)CC(C)(C)O
Class Name: inactive

Molecule: Nc1cccc2c(N)cccc12
Class Name: inactive

Molecule: Cc1oc(-c2ccccc2)nc1CCOc1ccc(C[C@H](Nc2ccccc2C(=O)c2ccccc2)C(=O)O)cc1
Class Name: active

Molecule: CCCOc1sc(C(=O)N2CCC(c3cc(CN)ccc3F)CC2)c(C)c1Br
Class Name: active

Molecule: CC[C@H](c1ccc(O)cc1)[C@@H](CC)c1ccc(O)cc1
Class Name: active

Molecule: CC(C)(C)CC(C)(C)c1ccc(O)c(-n2nc3ccccc3n2)c1
Class Name: inactive

Molecule: CCC(C)(C)C1CCC(O)CC1 (stereo unspecified)
Class Name: inactive

Molecule: Cc1cc(CCN2CCN(c3nsc4ccccc34)CC2)cc2c1NC(=O)CC2(C)C
Class Name: active

Molecule: CCC(=C(c1ccc(O)cc1)c1ccc(OCCN(C)C)cc1)c1ccccc1
Class Name: active

Molecule: CCCCCCC(=O)O
Class Name: inactive

Molecule: O=C(O)c1ccccc1C(c1ccc(O)cc1)c1ccc(O)cc1
Class Name: inactive

Molecule: CCCCCCCCCCCCc1ccccc1S(=O)(=O)O
Class Name: inactive

Molecule: c1ccc2c(c1)Cc1ccccc1-2
Class Name: inactive

Molecule: O=c1c(-c2ccc(O)cc2)coc2cc(O)ccc12
Class Name: inactive

Molecule: CCCCCCCCCCCCCC[N+](C)(C)C
Class Name: active

Molecule: CCCCC(CC)COC(=O)CCCCC(=O)OCc1ccccc1 (stereo unspecified)
Class Name: inactive

Molecule: CCN(CC)CCNc1ccc(CNC=O)c2sc3ccc(OC)cc3c(=O)c12
Class Name: active

Molecule: CCc1nn(C2CCCCC2)c2cc(C3(C#N)CCC(C(=O)O)CC3)ccc12 (stereo unspecified)
Class Name: active

Molecule: c1ccc2cc3c(ccc4ccccc43)cc2c1
Class Name: inactive

Molecule: O=C(O)Cc1cc(I)c(Oc2cc(I)c(O)c(I)c2)c(I)c1
Class Name: active

Molecule: CCCCCCCCC(=O)O
Class Name: inactive

Molecule: CC[C@H](C)[C@@H](C(=O)O)n1sc2ccccc2c1=O
Class Name: inactive

Molecule: CCCCCCCCCCCCCCCS(=O)(=O)Oc1ccccc1
Class Name: inactive

Molecule: OC1CCC(C2CCCCC2)CC1 (stereo unspecified)
Class Name: inactive

Molecule: NC(=O)N(O)[C@@H]1C=C[C@H](Oc2cccc(Oc3ccc(F)cc3)c2)C1
Class Name: inactive
